Reference source: the supplement of paper PMC11865577

Consider the following sequences; for each one, report its pull-down binding Z-score.
- System: TO-3-N3 (biotin conjugate)
- experimental protocol: pull-down binding Z-score (relative to library population); higher = stronger binding
- condition notes: RNA library: Library-2
Answers are plain numbers.

Study these solved cases before continuing.
sequence input | target or test system | pull-down binding Z-score
GUGAAGAAUCAU | TO-3-N3 (biotin conjugate) | 0.637
UGGGGUUGGGGUUGGGGUUGGGGUUGGGGUUGGGGU [G4_r(UGGGGU)6] | TO-3-N3 (biotin conjugate) | 7.92
GCUGCAGGCAAAGCUGGGG [hsa-mir-711] | TO-3-N3 (biotin conjugate) | 0.431
UUGUGGCAAUACAG [hsa-mir-8068] | TO-3-N3 (biotin conjugate) | -0.437
AGAACUUUGGUUUU [hsa-mir-4434] | TO-3-N3 (biotin conjugate) | -0.711

Batch lookup, pull-down binding Z-score per entry.
1. CGAGUCUCUGAAACUCUACAGAGAUUCG [IAV_invivo_NS1_NEP_8_Motif_12+IAV_invivo_NS1_NEP_8_Motif_12]
2. GGCUGUAGUUGUGAUCAACUCCGCGAACCCAUGCUUCAGUCAGCUGAUGCACAAUCGUUUUUAAACGGGUUUGCGGUGUAAGUGCAGCC [DMSMaPseq_invitro_SARS-CoV-2_Motif_241]
3. GUGGGUUGUGAGGACUGAGGCCAGACCCAC [hsa-mir-181d]
4. CACUCUCCCUAAUGGGGCUGAAGACAGCUCAGGGGCAGGGUG [hsa-mir-4472-1]
5. CUGGGGGCAAUCAGUUUCUGG [IAV_invivo_HA_4_Motif_20+IAV_invivo_HA_4_Motif_20]

Response line:
-1
-0.355
-0.504
-0.357
1.05
